- method: MTT cell viability assay, Hep G2 cells (serum-free DMEM)
- test_conditions: human, Hep G2 cells, Cell viability, LOV 50 μM 48 hr, then LOV 50 μM without MVA another 24 hr
observation_type: viability at 72 h, 50 μM (%)
Field format: number, assumed %, no unit text.

Entry CC[C@H](C)C(=O)O[C@H]1C[C@@H](C)C=C2C=C[C@H](C)[C@H](CC[C@@H]3C[C@@H](O)CC(=O)O3)[C@H]21 [Lovastatin, lovastatin] has what viability at 72 h, 50 μM?
57.8

---

- method: MTT cell viability assay, Hep G2 cells (serum-free DMEM)
- test_conditions: human, Hep G2 cells, Cell viability, lovastatin 5 μM 48 hr, then no CAPE 48 hr
observation_type: viability at 48 h, 5 μM (%)
Number in %, nothing else.

Fill in: viability at 48 h, 5 μM of CC[C@H](C)C(=O)O[C@H]1C[C@@H](C)C=C2C=C[C@H](C)[C@H](CC[C@@H]3C[C@@H](O)CC(=O)O3)[C@H]21 is ___
75.2

---

- method: MTT cell viability assay, Hep G2 cells (serum-free DMEM)
- test_conditions: human, Hep G2 cells, Cell viability, no lovastatin 48 hr, then taxol 5 nM 48 hr
observation_type: viability at 48 h, 5 nM (%)
Write it as a number; the unit % goes unstated.

Quick check: viability at 48 h, 5 nM of CC(=O)O[C@H]1C(=O)[C@@]2(C)[C@H]([C@H](OC(=O)c3ccccc3)[C@]3(O)C[C@H](OC(=O)[C@H](O)[C@@H](NC(=O)c4ccccc4)c4ccccc4)C(C)=C1C3(C)C)[C@]1(OC(C)=O)CO[C@@H]1C[C@@H]2O [Taxol, paclitaxel] ?
61.5

---

- method: MTT cell viability assay, Hep G2 cells (serum-free DMEM)
- test_conditions: human, Hep G2 cells, Cell viability, taxol 50 nM, 72 hr
observation_type: viability at 72 h, 50 nM (%)
Give the value in % but do not write % after it.

Could you tell me which viability at 72 h, 50 nM is on file for CC(=O)O[C@H]1C(=O)[C@@]2(C)[C@H]([C@H](OC(=O)c3ccccc3)[C@]3(O)C[C@H](OC(=O)[C@H](O)[C@@H](NC(=O)c4ccccc4)c4ccccc4)C(C)=C1C3(C)C)[C@]1(OC(C)=O)CO[C@@H]1C[C@@H]2O [Taxol, paclitaxel] ?
33.9

---

- method: MTT cell viability assay, Hep G2 cells (serum-free DMEM)
- test_conditions: human, Hep G2 cells, Cell viability, LOV 10 μM, 72 hr
observation_type: viability at 72 h, 10 μM (%)
Respond with the bare value in %.

Quick one: viability at 72 h, 10 μM for CC[C@H](C)C(=O)O[C@H]1C[C@@H](C)C=C2C=C[C@H](C)[C@H](CC[C@@H]3C[C@@H](O)CC(=O)O3)[C@H]21 ?
78.7

---

- method: MTT cell viability assay, Hep G2 cells (serum-free DMEM)
- test_conditions: human, Hep G2 cells, Cell viability, lovastatin 5 μM alone, 72 hr, Table 23
observation_type: viability at 72 h, 5 μM (%)
Only the number, expressed in %, is required.

Which viability at 72 h, 5 μM value belongs to CC[C@H](C)C(=O)O[C@H]1C[C@@H](C)C=C2C=C[C@H](C)[C@H](CC[C@@H]3C[C@@H](O)CC(=O)O3)[C@H]21 [Lovastatin, lovastatin] ?
66.8

FYI, the data here is from patent US20020173538A1.
